B1: OR4K15 (parent)
chain: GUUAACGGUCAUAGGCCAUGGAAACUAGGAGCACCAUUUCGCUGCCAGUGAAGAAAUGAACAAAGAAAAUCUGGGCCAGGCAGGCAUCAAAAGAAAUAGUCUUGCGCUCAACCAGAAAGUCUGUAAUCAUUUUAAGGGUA

variants of: B1; assay: self-cleavage, relative activity (ratio to wild type); higher = more cleavage; in vitro, sequencing; the parent is a self-cleaving ribozyme
parameter: self-cleavage
Lab note: write the figure by itself, no unit.

What the record says about A18U A66G : self-cleavage is 1.5

What the record says about C6U U19G : self-cleavage is 0.77

What the record says about G20A A92U : self-cleavage is 0.79

What the record says about U122A A135G : self-cleavage is 2.11

What the record says about A66U U72A : self-cleavage is 0.2

What the record says about C76U C105U : self-cleavage is 0.03

What the record says about U39G A129G : self-cleavage is 0.86

What the record says about G58U A117G : self-cleavage is 1.89

What the record says about A23U A47G : self-cleavage is 0.67

What the record says about A86U U130C : self-cleavage is 1.44

What the record says about A60G A68C : self-cleavage is 1.57

What the record says about A62G G73A : self-cleavage is 0.15

What the record says about G7A U87C : self-cleavage is 1.25
